system: MYB mRNA; assay: Splicing RT-qPCR assay, MYB canonical (CJ) and alternative (AJ) junction mRNA; assay type: cell-based, human; details: Homo sapiens, 24 h, A673 or K562 cells, 24 hours compound treatment, RT-qPCR; read-out: MYB AJ (AC50, increase in alternative junction mRNA)
Counter-ions that a name gives are not always drawn.
REPORTED PROPERTY: AC50

> print(dat)
                                   compound  study.target  assay.result
1  CCn1cc2c(N3CCNCC3)ccc(C(=O)Nc3cn4cc(C)nc4c(Cl)n3)c2n1 [Compound 604]      MYB mRNA    1 to 10 µM
2  Cc1cn2cc(NC(=O)c3ccc(N4CCNCC4)c4cn(CCO)nc34)cc(F)c2n1 [Compound 291, hydrochloride]      MYB mRNA   0.1 to 1 µM
3  CCn1cc2c(N3CC4(CNC4)C3)ccc(C(=O)Nc3cc(F)c4nc(C)cn4c3)c2n1 [Compound 477]      MYB mRNA   0.1 to 1 µM
4  CC1=NC2C=C(NC(=O)c3ccc(N4CCNC(C)(C)C4)c4cn(C)nc34)C=C(F)C2=N1 (centres unmarked) [Compound 240]      MYB mRNA      < 0.1 µM
5  Cc1cn2cc(NC(=O)c3ccc(N4CCNCC4)c4cn(Cc5ccc6[nH]ncc6c5)nc34)cc(F)c2n1 [Compound 340]      MYB mRNA    1 to 10 µM
6  Cc1cn2cc(NC(=O)c3ccc(N4CCNCC4)c4cn(C)nc34)[nH]c(=O)c2n1 [Compound 342]      MYB mRNA       > 10 µM
7  CCn1cc2c(OC3CCNC3)ccc(C(=O)Nc3cc(F)c4nc(C)cn4c3)c2n1 (centres unmarked) [Compound 498]      MYB mRNA   0.1 to 1 µM
8  Cc1cn2cc(NC(=O)c3ccc(N4CCNCC4)c4cn(C)nc34)nc(C)c2n1 [Compound 293]      MYB mRNA      < 0.1 µM
